Origin of measurements: the supplement of paper PMC10307832

# Tested on: EMC-BAC-2
# test name: relative viability (nuclei count vs DMSO), 5 days (fraction); higher = more cells survive
# condition info: first compound 0.002 µM
property: relative viability

1. CC(=O)O[C@@]12CO[C@@H]1C[C@H](O)[C@@]1(C)C(=O)[C@H](O)C3=C(C)[C@@H](OC(=O)[C@H](O)[C@@H](NC(=O)OC(C)(C)C)c4ccccc4)C[C@@](O)([C@@H](OC(=O)c4ccccc4)[C@H]21)C3(C)C [Docetaxel] + CC1(C)CCC(c2ccc(Cl)cc2)=C(CN2CCN(c3ccc(C(=O)NS(=O)(=O)c4ccc(N[C@H](CCN5CCOCC5)CSc5ccccc5)c(S(=O)(=O)C(F)(F)F)c4)cc3)CC2)C1 [Navitoclax] (partner 0.5 µM) | 0.735

---

# Tested on: NCI-H1650
# test name: relative viability (nuclei count vs DMSO), 5 days (fraction); higher = more cells survive
# condition info: first compound 500 µM
relative viability: recorded values
property: relative viability

1) O=C(O)CCCCC(CCSCc1ccccc1)SCc1ccccc1 (stereo not given) [CPI-613] + CC(=O)Nc1cccc(-n2c(=O)n(C3CC3)c(=O)c3c(Nc4ccc(I)cc4F)n(C)c(=O)c(C)c32)c1 [Trametinib] (partner 0.02 µM) | 0.0145
2) O=C(O)CCCCC(CCSCc1ccccc1)SCc1ccccc1 (stereo not given) [CPI-613] + CS(=O)(=O)CCNCc1ccc(-c2ccc3ncnc(Nc4ccc(OCc5cccc(F)c5)c(Cl)c4)c3c2)o1 [Lapatinib] (partner 2 µM) | 0.023
3) O=C(O)CCCCC(CCSCc1ccccc1)SCc1ccccc1 (stereo not given) [CPI-613] + Cc1nc(Nc2ncc(C(=O)Nc3c(C)cccc3Cl)s2)cc(N2CCN(CCO)CC2)n1 [Dasatinib] (partner 0.075 µM) | 0.0164
4) O=C(O)CCCCC(CCSCc1ccccc1)SCc1ccccc1 (stereo not given) [CPI-613] + CC1(C)CCC(c2ccc(Cl)cc2)=C(CN2CCN(c3ccc(C(=O)NS(=O)(=O)c4ccc(N[C@H](CCN5CCOCC5)CSc5ccccc5)c(S(=O)(=O)C(F)(F)F)c4)cc3)CC2)C1 [Navitoclax] (partner 0.5 µM) | 0.034
5) O=C(O)CCCCC(CCSCc1ccccc1)SCc1ccccc1 (stereo not given) [CPI-613] + CC(C)C[C@H](NC(=O)[C@H](Cc1ccccc1)NC(=O)c1cnccn1)B(O)O [Bortezomib] (partner 0.002 µM) | 0.0195

---

relative viability: recorded values
# Tested on: SK-MES-1
# test name: relative viability (nuclei count vs DMSO), 5 days (fraction); higher = more cells survive
# condition info: first compound 0.4 µM
property: relative viability

1. Cc1sc2c(c1C)C(c1ccc(Cl)cc1)=N[C@@H](CC(=O)OC(C)(C)C)c1nnc(C)n1-2 [JQ1] + Cc1nc(NC(=O)N2CCC[C@H]2C(N)=O)sc1-c1ccnc(C(C)(C)C(F)(F)F)c1 [Alpelisib] (partner 2 µM) | 0.733
2. Cc1sc2c(c1C)C(c1ccc(Cl)cc1)=N[C@@H](CC(=O)OC(C)(C)C)c1nnc(C)n1-2 [JQ1] + CS(=O)(=O)CCNCc1ccc(-c2ccc3ncnc(Nc4ccc(OCc5cccc(F)c5)c(Cl)c4)c3c2)o1 [Lapatinib] (partner 2 µM) | 0.361
3. Cc1sc2c(c1C)C(c1ccc(Cl)cc1)=N[C@@H](CC(=O)OC(C)(C)C)c1nnc(C)n1-2 [JQ1] + CC(=O)Nc1cccc(-n2c(=O)n(C3CC3)c(=O)c3c(Nc4ccc(I)cc4F)n(C)c(=O)c(C)c32)c1 [Trametinib] (partner 0.02 µM) | 0.32
4. Cc1sc2c(c1C)C(c1ccc(Cl)cc1)=N[C@@H](CC(=O)OC(C)(C)C)c1nnc(C)n1-2 [JQ1] + C[C@]1(O)C[C@@H](c2nc(-c3ccc4ccc(-c5ccccc5)nc4c3)c3c(N)nccn32)C1 [Linsitinib] (partner 1 µM) | 0.862
5. Cc1sc2c(c1C)C(c1ccc(Cl)cc1)=N[C@@H](CC(=O)OC(C)(C)C)c1nnc(C)n1-2 [JQ1] + CC1(C)CCC(c2ccc(Cl)cc2)=C(CN2CCN(c3ccc(C(=O)NS(=O)(=O)c4ccc(N[C@H](CCN5CCOCC5)CSc5ccccc5)c(S(=O)(=O)C(F)(F)F)c4)cc3)CC2)C1 [Navitoclax] (partner 0.5 µM) | 1.12

---

# Test system: BEN
# test name: relative viability (nuclei count vs DMSO), 5 days (fraction); higher = more cells survive
# condition info: first compound 0.1581 µM
property: relative viability

1) COc1cc2nccc(Oc3ccc(NC(=O)Nc4cc(C)on4)c(Cl)c3)c2cc1OC [Tivozanib] + COc1cc2c(Oc3ccc(NC(=O)C4(C(=O)Nc5ccc(F)cc5)CC4)cc3F)ccnc2cc1OCCCN1CCOCC1 [Foretinib] (partner 0.25 µM) | 0.25
2) Nc1ccn([C@@H]2O[C@H](CO)[C@@H](O)[C@@H]2O)c(=O)n1 [Cytarabine] + CS(=O)(=O)N1CCN(Cc2cc3nc(-c4cccc5[nH]ncc45)nc(N4CCOCC4)c3s2)CC1 [Pictilisib] (partner 1 µM) | 0.279
3) COc1cc2nccc(Oc3ccc(NC(=O)Nc4cc(C)on4)c(Cl)c3)c2cc1OC [Tivozanib] + NC(=O)Nc1cc(-c2cccc(F)c2)sc1C(=O)N[C@H]1CCCNC1 [AZD7762] (partner 0.2 µM) | 0.375
4) Nc1ccn([C@@H]2O[C@H](CO)[C@@H](O)[C@@H]2O)c(=O)n1 [Cytarabine] + C[C@@H](Oc1cc(-c2cnn(C3CCNCC3)c2)cnc1N)c1c(Cl)ccc(F)c1Cl [Crizotinib] (partner 1 µM) | 0.311

---

# Tested on: NCI-H1666
# test name: relative viability (nuclei count vs DMSO), 5 days (fraction); higher = more cells survive
# condition info: first compound 5 µM
property: relative viability

1. O=C(O)CCCCC(CCSCc1ccccc1)SCc1ccccc1 (stereo not drawn) [CPI-613] + NC(=O)Nc1cc(-c2cccc(F)c2)sc1C(=O)N[C@H]1CCCNC1 [AZD7762] (partner 0.2 µM) | 0.911
2. O=C(O)CCCCC(CCSCc1ccccc1)SCc1ccccc1 (stereo not drawn) [CPI-613] + CS(=O)(=O)CCNCc1ccc(-c2ccc3ncnc(Nc4ccc(OCc5cccc(F)c5)c(Cl)c4)c3c2)o1 [Lapatinib] (partner 2 µM) | 0.629
3. O=C(O)CCCCC(CCSCc1ccccc1)SCc1ccccc1 (stereo not drawn) [CPI-613] + CC(=O)Nc1cccc(-n2c(=O)n(C3CC3)c(=O)c3c(Nc4ccc(I)cc4F)n(C)c(=O)c(C)c32)c1 [Trametinib] (partner 0.02 µM) | 0.888

---

# System: SK-LU-1
# test name: relative viability (nuclei count vs DMSO), 5 days (fraction); higher = more cells survive
# condition info: first compound 0.253 µM
property: relative viability

1) Cc1cnc(-c2cnc(NCCNc3ccc(C#N)cn3)nc2-c2ccc(Cl)cc2Cl)[nH]1 + COc1cccc2cc(-c3nc([C@H]4CC[C@H](C(=O)O)CC4)n4ncnc(N)c34)[nH]c12 [OSI-027] (partner 0.5 µM) | 0.336
2) O=c1[nH]c2ccccc2n1C1CCN(CCCC(c2ccc(F)cc2)c2ccc(F)cc2)CC1 [Pimozide] + CS(=O)(=O)N1CCN(Cc2cc3nc(-c4cccc5[nH]ncc45)nc(N4CCOCC4)c3s2)CC1 [Pictilisib] (partner 1 µM) | 0.566
3) O=c1[nH]c2ccccc2n1C1CCN(CCCC(c2ccc(F)cc2)c2ccc(F)cc2)CC1 [Pimozide] + CC(=O)c1c(C)c2cnc(Nc3ccc(N4CCNCC4)cn3)nc2n(C2CCCC2)c1=O [Palbociclib] (partner 0.5 µM) | 0.533
4) O=c1[nH]c2ccccc2n1C1CCN(CCCC(c2ccc(F)cc2)c2ccc(F)cc2)CC1 [Pimozide] + Nc1nc2[nH]cc(CCc3ccc(C(=O)N[C@@H](CCC(=O)O)C(=O)O)cc3)c2c(=O)[nH]1 [Pemetrexed] (partner 0.2 µM) | 0.991
5) Cc1cnc(-c2cnc(NCCNc3ccc(C#N)cn3)nc2-c2ccc(Cl)cc2Cl)[nH]1 + C[C@@H](Oc1cc(-c2cnn(C3CCNCC3)c2)cnc1N)c1c(Cl)ccc(F)c1Cl [Crizotinib] (partner 1 µM) | 0.918
6) O=c1[nH]c2ccccc2n1C1CCN(CCCC(c2ccc(F)cc2)c2ccc(F)cc2)CC1 [Pimozide] + COc1cccc2cc(-c3nc([C@H]4CC[C@H](C(=O)O)CC4)n4ncnc(N)c34)[nH]c12 [OSI-027] (partner 0.5 µM) | 0.331
7) Cc1cnc(-c2cnc(NCCNc3ccc(C#N)cn3)nc2-c2ccc(Cl)cc2Cl)[nH]1 + Cc1cc(Nc2cc(N3CCN(C)CC3)nc(Sc3ccc(NC(=O)C4CC4)cc3)n2)n[nH]1 [Tozasertib] (partner 0.1 µM) | 0.348
8) O=c1[nH]c2ccccc2n1C1CCN(CCCC(c2ccc(F)cc2)c2ccc(F)cc2)CC1 [Pimozide] + Nc1ncn([C@H]2C[C@H](O)[C@@H](CO)O2)c(=O)n1 [Decitabine] (partner 2 µM) | 0.741
9) O=c1[nH]c2ccccc2n1C1CCN(CCCC(c2ccc(F)cc2)c2ccc(F)cc2)CC1 [Pimozide] + CC(C)C[C@H](NC(=O)[C@H](Cc1ccccc1)NC(=O)c1cnccn1)B(O)O [Bortezomib] (partner 0.002 µM) | 1.21
